targetOfAssay: hCA IX (Homo sapiens, UniProt Q16790)
protocol: biochemical
conditionContext: log KI hCA IX (experimental), log of KI in nM; compounds of this paper
propertyLabel: Ki (nM)
Answers are plain numbers, in nM.

Answered cases to consult:
NS(=O)(=O)c1ccc(NCC(=O)NN=C2C(=O)N(CC(=O)Nc3ccccc3Cl)c3ccccc32)cc1 [4f] | 5360
Cc1ccc(NC(=O)CN2C(=O)C(=NNc3ccc(S(N)(=O)=O)cc3)c3ccccc32)cc1 [3d] | 86.1
NS(=O)(=O)c1ccc(NCC(=O)NN=C2C(=O)N(CC(=O)Nc3ccc(Cl)cc3)c3ccccc32)cc1 [4b] | 3930

Exam item: Specify Ki for NS(=O)(=O)c1ccc(NCC(=O)NN=C2C(=O)N(CC(=O)Nc3ccccc3)c3ccccc32)cc1 [4a] and stop.
Marked response: 807
